# Tested on: Hepatitis C virus
# Protocol Notes: Antiviral activity against wild type Hepatitis C virus subtype 1b by transient replicon assay
# Format: functional, organism-based, Hepacivirus hominis
# Experimental Conditions: genotype 1b
pEC50: −log10 of the molar value.
Param threshold (10) applies to pEC50; output condition met when value >= threshold, condition not met when value < threshold.

IN: Identify whether the reported pEC50 of the following compound is 10 or greater: COc1ccc2c(O[C@@H]3C[C@H]4C(=O)N[C@]5(C(=O)NS(=O)(=O)C6CC6)C[C@H]5/C=C\CCCCC[C@H](NC(=O)N5CC6CCCC6C5)C(=O)N4C3)cc(-c3nc(C(C)C)cs3)nc2c1C (some centres undefined)
OUT: condition met

IN: Assess whether reported pEC50 for "COc1ccc2c(O[C@@H]3C[C@H]4C(=O)N[C@]5(C(=O)NS(=O)(=O)C6CC6)C[C@H]5/C=C\CCCCC[C@H](NC(=O)N5CCC(c6ccccc6)CC5)C(=O)N4C3)cc(-c3nc(C(C)C)cs3)nc2c1C" sits at 10 or higher.
OUT: condition not met

***
IN: Is pEC50 at least 10? Consider CC(C)(C)OC(=O)N[C@H]1CCCCC/C=C\[C@@H]2C[C@@]2(C(=O)NS(=O)(=O)C2CC2)NC(=O)[C@@H]2C[C@@H](OC(=O)N3Cc4cccc(F)c4C3)CN2C1=O [DANOPREVIR]
OUT: condition not met

IN: Does pEC50 meet or surpass 10 for CC(C)(C)NC(=O)N[C@H](C(=O)N1C[C@H]2[C@@H]([C@H]1C(=O)NC(CC1CCC1)C(=O)C(N)=O)C2(C)C)C(C)(C)C (some centres undefined) [BOCEPREVIR] ?
OUT: condition not met

IN: Is pEC50 at least 10? Consider "COc1ccc2c(O[C@@H]3C[C@H]4C(=O)N[C@]5(C(=O)NS(=O)(=O)C6CC6)C[C@H]5/C=C\CCCCC[C@H](NC(=O)N5CCS(=O)(=O)CC5)C(=O)N4C3)cc(-c3nc(C(C)C)cs3)nc2c1C"
OUT: condition not met

IN: Please tell me: is the compound "COc1ccc2c(O[C@@H]3C[C@H]4C(=O)N[C@]5(C(=O)NS(=O)(=O)C6CC6)C[C@H]5/C=C\CCCCC[C@H](NC(=O)N5CCOCC5)C(=O)N4C3)cc(-c3nc(C(C)C)cs3)nc2c1C" at or over 10 in terms of pEC50?
OUT: condition met

IN: // inclusive: pEC50 at least 10? input: COc1ccc2c(O[C@@H]3C[C@H]4C(=O)N[C@]5(C(=O)O)C[C@H]5/C=C\CCCCC[C@H](NC(=O)OC5CCCC5)C(=O)N4C3)cc(-c3csc(NC(C)C)n3)nc2c1 [CILUPREVIR]
OUT: condition not met

IN: Is the recorded value of pEC50 equal to or greater than 10 for this compound? "COc1ccc2c(O[C@@H]3C[C@H]4C(=O)N[C@]5(C(=O)NS(=O)(=O)C6CC6)C[C@H]5/C=C\CCCCC[C@H](NC(=O)N5CCC(CC(N)=O)CC5)C(=O)N4C3)cc(-c3nc(C(C)C)cs3)nc2c1C"
OUT: condition not met
